# Read-out: Human Leukocyte Antigen - DR isotype (HLADR), HLA-DRA (gene 3122)
# test-details: BSK_3C_HLADR: BioMAP Diversity Plus: 3C Assay for Human Leukocyte Antigen - DR isotype (HLADR) Biomarker Activity (AID 2283019);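 as to outcome: ELISA of cell-surface HLA-DR on HUVEC 24 h after dosing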
# run-parameters: primary human endothelial cells (HUVEC); actives raise or lower the signal
Calls of active or inactive are those of the source. The calls were made as follows: active = hit-call score of the fitted dose curve at least 0.9, where 1 is the maximum; inactive = score below 0.9.
A correct response names exactly one class from label 1 = active, label 0 = inactive

Identify the outcome logged in this assay for the compound shown: `COc1ccc(CCN2CCC(Nc3nc4ccccc4n3Cc3ccc(F)cc3)CC2)cc1` label 1

Identify the outcome logged in this assay for the compound shown: C1=CC2C3C=CC(C3)C2C1 (stereo not drawn) label 0

Identify the outcome logged in this assay for the compound shown: `C[C@@H]1CCN(C(=O)[C@H](CCCN=C(N)N)NS(=O)(=O)c2cccc3c2NC[C@H](C)C3)[C@@H](C(=O)O)C1` label 0

Identify the outcome logged in this assay for the compound shown: `CC(C)(N=C=O)c1cccc(C(C)(C)N=C=O)c1` label 0

Identify the outcome logged in this assay for the compound shown: `C=C(C)C(=O)OCCOCCOCCOCCOC(=O)C(=C)C` label 0

Identify the outcome logged in this assay for the compound shown: `O=C1OC2(c3ccccc31)c1ccc(O)c(Br)c1Oc1c2ccc(O)c1Br` label 1

Identify the outcome logged in this assay for the compound shown: `CC(=O)Nc1ccc(C(=O)CCl)cc1` label 1

Identify the outcome logged in this assay for the compound shown: CC(=O)C1(C)CC2=C(CCCC2(C)C)CC1C (stereo not drawn) label 1

Identify the outcome logged in this assay for the compound shown: `CC(=O)c1c(C)c([N+](=O)[O-])c(C(C)(C)C)c([N+](=O)[O-])c1C` label 0

Identify the outcome logged in this assay for the compound shown: `Oc1c(Cl)cc(Cl)c(Cl)c1Cc1c(O)c(Cl)cc(Cl)c1Cl` label 1

Identify the outcome logged in this assay for the compound shown: `c1ccc(CCc2ccccc2)cc1` label 1

Identify the outcome logged in this assay for the compound shown: `CC=Cc1ccc(OCC)c(O)c1` label 0

Identify the outcome logged in this assay for the compound shown: `C=C(C)[C@H]1CC=C(C)C(=O)C1` label 0

Identify the outcome logged in this assay for the compound shown: `CCOC(=O)C(C#N)=C(c1ccccc1)c1ccccc1` label 0

Identify the outcome logged in this assay for the compound shown: `O=CN1CCOCC1` label 0

Identify the outcome logged in this assay for the compound shown: `Cc1cc(CCC(=O)OCCOCCOCCOC(=O)CCc2cc(C)c(O)c(C(C)(C)C)c2)cc(C(C)(C)C)c1O` label 1

Identify the outcome logged in this assay for the compound shown: `C=C(C)C(=O)OCC(CC)(COC(=O)C(=C)C)COC(=O)C(=C)C` label 1

Identify the outcome logged in this assay for the compound shown: `CSCCC=O` label 0

Identify the outcome logged in this assay for the compound shown: `O=C(Nc1ccc2c(O)c(N=Nc3ccc(N=Nc4ccc(S(=O)(=O)O)cc4)cc3)c(S(=O)(=O)O)cc2c1)c1ccccc1` label 0

Identify the outcome logged in this assay for the compound shown: `IC(I)I` label 0

Identify the outcome logged in this assay for the compound shown: `COc1ccc(OC)c(N=Nc2c(O)ccc3ccccc23)c1` label 1

Identify the outcome logged in this assay for the compound shown: CCCCCCC(CO)CCCC (stereo not drawn) label 0

Identify the outcome logged in this assay for the compound shown: `CCCCCCCCCCCCCCCC(=O)OC/C=C(C)/C=C/C=C(C)/C=C/C1=C(C)CCCC1(C)C` label 1

Identify the outcome logged in this assay for the compound shown: `COc1cc(Cl)c(OC)cc1N` label 0

Identify the outcome logged in this assay for the compound shown: `c1ccc2cc(Nc3ccc(Nc4ccc5ccccc5c4)cc3)ccc2c1` label 0

Identify the outcome logged in this assay for the compound shown: `CCCCOC(=O)CCCCCCCC(=O)OCCCC` label 0

Identify the outcome logged in this assay for the compound shown: `CCN(CC)C(=O)N(CC)CC` label 0

Identify the outcome logged in this assay for the compound shown: `CCCCN(CCCC)C(=O)N(CCCC)CCCC` label 1
